TEST_SYSTEM: FLT3 (Homo sapiens, UniProt P36888)
Construct: FLT3(DKIN); made in house
Sequence (P36888 610-943 limits assumed): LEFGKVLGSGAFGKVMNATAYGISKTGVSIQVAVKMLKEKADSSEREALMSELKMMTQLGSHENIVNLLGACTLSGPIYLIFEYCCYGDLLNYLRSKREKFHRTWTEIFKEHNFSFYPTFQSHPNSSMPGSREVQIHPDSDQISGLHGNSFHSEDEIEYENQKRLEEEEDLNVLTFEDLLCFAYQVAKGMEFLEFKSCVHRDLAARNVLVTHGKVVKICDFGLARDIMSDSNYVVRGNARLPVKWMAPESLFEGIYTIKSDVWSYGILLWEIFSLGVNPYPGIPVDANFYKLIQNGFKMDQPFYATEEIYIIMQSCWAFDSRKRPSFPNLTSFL
PROTOCOL_DESCRIPTION: Binding constant (Kd) measurement, phage-displayed kinase competition binding assay
RUN_PARAMETERS: FLT3(JMminus) construct
ASSAY_METRIC: Binding Assay: FLT3(JMminus)

COMPOUND	OBSERVED
CC(C)(C)c1cc(NC(=O)Nc2ccc(NC(=O)c3ccccn3)cc2)no1	+ + + +
CC(=O)Oc1cccnc1C(=O)Nc1ccc(NC(=O)Nc2cc(C(C)(C)C)on2)cc1	+ + + +
Cc1cc(NC(=O)c2cn3nc(Cl)ccc3n2)ccc1NC(=O)Nc1cc(C(C)(C)C)on1	+ + +
Cc1cnc(C(=O)Nc2ccc(NC(=O)Nc3cc(C(C)(C)C)on3)cc2)c(C(=O)O)n1	+ + + +
CC(C)(C)c1cc(NC(=O)Nc2ccc(NC(=O)c3ncccc3O)cc2)no1	+ + + +
CC(C)(C)c1cc(NC(=O)Nc2ccc([N+](=O)[O-])cc2)no1	+ + +
CC(C)(C)c1cc(NC(=O)Nc2ccc(NC(=O)c3cc(O)c4cccc(O)c4n3)cc2)no1	+ + +
CC(C)(C)c1cc(NC(=O)Nc2ccc(NC(=O)c3nnsc3Sc3ccc(Cl)cc3)cc2)no1	+ + +

# input Check the records and state Binding Assay: FLT3(JMminus) for COc1cc(OC)nc(C2CCCCC2C(=O)Nc2ccc(NC(=O)Nc3cc(C(C)(C)C)on3)cc2)n1 (centres unmarked)
# output + + +

# input Provide one value: measured Binding Assay: FLT3(JMminus) of Cc1nc(-c2ccc(Cl)cc2)sc1C(=O)Nc1ccc(NC(=O)Nc2cc(C(C)(C)C)on2)cc1
# output + + + +

# input Indicate its recorded Binding Assay: FLT3(JMminus); the compound in question is CC(C)(C)c1cc(C(=O)Nc2ccc(NC(=O)Nc3cc(C(C)(C)C)on3)cc2)n(-c2ccccc2)n1
# output + + +
